For Sodium- and chloride-dependent GABA transporter 1 (Mus musculus, UniProt P31648), measured Ki is reported for the entries below.
metricName: Ki (nM)

Recorded Ki, per entry:
Determine from records and report Ki for O=C(O)[C@H]1CNC[C@@H](CN/N=C/c2cnc(-c3ccc4ccccc4c3)nc2)C1 (racemic)
933

Quickly give me recorded Ki for O=C(O)[C@H]1CNC[C@@H](CN/N=C/c2ccc(-c3ccc(C(F)(F)F)cc3Cl)o2)C1 (racemic)
447

Entry O=C(O)[C@H]1CNC[C@@H](CN/N=C/c2ccc(-c3cc(C(F)(F)F)ccc3Cl)o2)C1 (racemic) needs its Ki filled in; supply it.
468

1: Cc1ccsc1C(=CCCN1CCC[C@@H](C(=O)O)C1)c1sccc1C
2: O=C(O)[C@H]1CNC[C@@H](CN/N=C/c2ccc(-c3cccc4ccccc34)o2)C1 (racemic)
Of the two listed items, 1 and 2 , which carries the larger Ki figure? # answer = label of selected item
2

I: O=C(O)[C@H]1CNC[C@@H](CN/N=C/c2ccc(-c3ccc(Cl)cc3[N+](=O)[O-])o2)C1 (racemic)
II: O=C(O)[C@H]1CNC[C@@H](CN/N=C/c2ccc(-c3ccc(Cl)cc3Cl)o2)C1 (racemic)
III: O=C(O)[C@H]1CNC[C@@H](CN/N=C/c2ccc(-c3ccccc3C(F)(F)F)o2)C1 (racemic)
Exam item: list the entries in increasing order of Ki. // format: requested-order list of labels
II, I, III

P: O=C(O)[C@H]1CNC[C@@H](CN/N=C/c2ccc(-c3ccc(F)c(C(F)(F)F)c3)o2)C1 (racemic)
Q: O=C(O)[C@H]1CNC[C@@H](CCN/N=C/c2ccc(-c3ccc(Cl)cc3Cl)o2)C1 (racemic)
Lower value for measured Ki? Options: P , Q Answer by quoting the chosen item's label.
Q
(Q: 479 nM, P: 1260 nM)

----------
# targetUnderTest: Sodium- and chloride-dependent GABA transporter 1 (Mus musculus, UniProt P31648)
# measurementProtocol: Inhibition of mouse GAT1 expressed in HEK293 cells assessed as reduction in [3H]GABA uptake preincubated for 25 mins followed by [3H]GABA addition and measured after 4 mins by liquid scintillation counting method
pIC50: −log10 of the molar value.
metricName: pIC50

Input O=C(O)[C@H]1CNC[C@@H](CN/N=C/c2ccc(-c3ccc(C(F)(F)F)cc3Cl)o2)C1 (racemic) , output reported pIC50.
4.38

Consider the molecule O=C(O)[C@H]1CNC[C@@H](CCN/N=C/c2ccc(-c3ccc(C(F)(F)F)cc3Cl)o2)C1 (racemic) and give its recorded pIC50.
4.35

Indicate its recorded pIC50; the molecule in question is O=C(O)[C@H]1CNC[C@@H](CN/N=C/c2ccc(-c3cccc4ccccc34)o2)C1 (racemic)
4.64

A: O=C(O)[C@H]1CNC[C@@H](CCN/N=C/c2ccc(-c3ccc(Cl)cc3Cl)o2)C1 (racemic)
B: O=C(O)[C@H]1CNC[C@@H](CN/N=C/c2ccc(-c3cc(C(F)(F)F)ccc3Cl)o2)C1 (racemic)
// compare measured pIC50, left A , right B , return larger Write the label of whichever entry you select.
A

----------
# targetUnderTest: Sodium- and chloride-dependent GABA transporter 1 (Homo sapiens, UniProt P30531)
# Sequence (P30531 whole entry): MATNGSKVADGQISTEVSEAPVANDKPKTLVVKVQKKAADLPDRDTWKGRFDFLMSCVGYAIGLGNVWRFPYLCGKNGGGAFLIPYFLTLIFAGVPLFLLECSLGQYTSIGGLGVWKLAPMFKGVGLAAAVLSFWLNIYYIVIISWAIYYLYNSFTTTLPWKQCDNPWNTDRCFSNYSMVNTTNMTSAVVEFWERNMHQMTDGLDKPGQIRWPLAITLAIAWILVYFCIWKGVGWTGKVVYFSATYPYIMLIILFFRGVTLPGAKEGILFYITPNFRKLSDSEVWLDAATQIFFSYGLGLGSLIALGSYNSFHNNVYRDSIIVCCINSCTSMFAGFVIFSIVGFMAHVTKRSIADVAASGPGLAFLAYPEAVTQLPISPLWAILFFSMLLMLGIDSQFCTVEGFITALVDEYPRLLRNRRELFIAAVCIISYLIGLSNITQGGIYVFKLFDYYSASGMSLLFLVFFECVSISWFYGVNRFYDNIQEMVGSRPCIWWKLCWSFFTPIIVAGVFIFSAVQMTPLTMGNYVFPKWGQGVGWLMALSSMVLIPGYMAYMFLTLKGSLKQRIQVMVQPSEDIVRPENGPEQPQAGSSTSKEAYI
# measurementProtocol: Inhibition of NO711 binding to human GAT1 expressed in COS cell membranes by LC-ESI-MS/MS analysis
pIC50: −log10 of the molar value.
The compounds listed here are annotated with their pIC50.

Given the compound O=C(O)[C@H]1CNC[C@@H](CN/N=C/c2ccc(-c3cc(C(F)(F)F)cc(C(F)(F)F)c3)o2)C1 (racemic) , write its reported pIC50.
3.77 to 4.57

Return value of pIC50 for input O=C(O)[C@H]1CNC[C@@H](CCN/N=C/c2ccc(-c3ccc(C(F)(F)F)cc3Cl)o2)C1 (racemic) , no commentary.
3.77 to 4.57

# return recorded pIC50 for input O=C(O)[C@H]1CNC[C@@H](CN/N=C/c2ccc(-c3ccc(C(F)(F)F)cc3Cl)o2)C1 (racemic)
3.77 to 4.57

Give pIC50 for the following compound: O=C(O)[C@H]1CNC[C@@H](CN/N=C/c2ccc(-c3cccc4ccccc34)o2)C1 (racemic)
3.77 to 4.57

Name the recorded pIC50 of the item O=C(O)[C@H]1CNC[C@@H](CCN/N=C/c2ccc(-c3ccc(Cl)cc3Cl)o2)C1 (racemic) in your answer.
3.77 to 4.57

Please turn your attention to the following entry.
Give the value of pIC50 reported for the following: O=C(O)[C@H]1CNC[C@@H](CN/N=C/c2ccc(-c3cc(C(F)(F)F)ccc3Cl)o2)C1 (racemic)
3.77 to 4.57

Cited source for all entries: ChEMBL document CHEMBL4371014
